Target: K-Ras G12C (Homo sapiens (Human), UniProt P01116+P62937, G12C)
Sequence (P01116-2 other isoform, or with tags, fused parts or gaps G12C): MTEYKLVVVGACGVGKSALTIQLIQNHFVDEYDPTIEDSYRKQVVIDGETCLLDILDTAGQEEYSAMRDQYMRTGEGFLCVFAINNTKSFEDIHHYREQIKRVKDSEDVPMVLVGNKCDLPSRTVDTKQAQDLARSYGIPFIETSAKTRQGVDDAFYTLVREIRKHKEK
Sequence (P62937 whole entry): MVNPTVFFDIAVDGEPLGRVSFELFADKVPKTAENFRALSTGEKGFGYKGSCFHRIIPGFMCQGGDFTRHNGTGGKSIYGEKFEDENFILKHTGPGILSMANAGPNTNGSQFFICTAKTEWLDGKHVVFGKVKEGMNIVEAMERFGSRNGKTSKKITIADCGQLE
Experiment: Ras-Raf (BRAF RBD) disruption / FRET / MOA assay, KRAS G12C
Type: biochemical
Settings: KRAS G12C; Ras-Raf disruption/FRET/MOA assay; read-out: IC50* KRAS G12C FRET data
Method: The purpose of this biochemical assay is to measure the ability of test compounds to facilitate ternary complex formation between a nucleotide-loaded Ras isoform and cyclophilin A; the resulting ternary complex disrupts binding to a BRAF^RBD construct, inhibiting Ras signaling through a RAF effector. Compound is present in plate wells as a 10-point 3-fold dilution series starting at a final concentration of 30 μM. […]
pIC50: −log10 of the molar value.
Listing of entries alongside the reported pIC50.

compound	testedTarget	pIC50
C=CC(=O)N1CC[C@H](C(=O)N(C)[C@H](C(=O)N[C@H]2Cc3cc(O)cc(c3)-c3ccc4c(c3)c(c(-c3cncnc3)n4CC)CC(C)(C)COC(=O)[C@@H]3CCCN(N3)C2=O)C(C)C)O1	K-Ras G12C (Homo sapiens (Human), UniProt P01116+P62937, G12C)	6.00 to 7.00
C=CC(=O)N1CC[C@H](C(=O)N(C)[C@H](C(=O)N[C@H]2Cc3cccc(c3)-c3ccc4c(c3)c(c(-c3cnn(C)c3CN(C)C)n4CC)CC(C)(C)COC(=O)[C@@H]3CCCN(N3)C2=O)C(C)C)C1 (relative stereo)	K-Ras G12C (Homo sapiens (Human), UniProt P01116+P62937, G12C)	< 5.00
C=CC(=O)N1CC[C@]2(C1)CN(C(=O)N(C)[C@H](C(=O)N[C@H]1Cc3nc(cs3)-c3ccc4c(c3)c(c(-c3cccnc3[C@H](C)OC)n4CC)CC(C)(C)COC(=O)[C@@H]3CCCN(N3)C1=O)C(C)C)CCO2 (atropisomer, axis not shown)	K-Ras G12C (Homo sapiens (Human), UniProt P01116+P62937, G12C)	6.00 to 7.00
CCn1c(-c2cccnc2[C@H](C)OC)c2c3cc(ccc31)N1CCO[C@@H](C[C@H](NC(=O)[C@H](C(C)C)N(C)C(=O)[C@@]3(F)CCC(C(=O)C#CC(C)(C)N4CCC4)C3)C(=O)N3CCC[C@H](N3)C(=O)OCC(C)(C)C2)C1 (stereo partly shown)	K-Ras G12C (Homo sapiens (Human), UniProt P01116+P62937, G12C)	> 8.00

----------
Target: K-Ras G12C (Homo sapiens (Human), UniProt P01116+P62937, G12C)
Assay: Ras-Raf (BRAF RBD) disruption / FRET / MOA assay, KRAS G12C
Format: biochemical
Settings: KRAS G12C; Ras-Raf disruption/FRET/MOA assay; read-out: IC50* KRAS G12C FRET data
pIC50: −log10 of the molar value.

molecule	testedTarget	pIC50
C=CC(=O)N1CCC(C(=O)N(C)[C@H](C(=O)N[C@H]2Cc3cc(CF)cc(c3)-c3ccc4c(c3)c(c(-c3cccnc3[C@H](C)OC)n4CC(F)(F)F)CC(C)(C)COC(=O)[C@@H]3CCCN(N3)C2=O)C(C)C)C1 (some centres unmarked)	K-Ras G12C (Homo sapiens (Human), UniProt P01116+P62937, G12C)	7.00 to 8.00
C=CC(=O)N1CC[C@H](C(=O)N(C)[C@H](C(=O)N[C@H]2Cc3cc(O)cc(c3)-c3ccc4c(c3)c(c(-c3c(C)cccc3C)n4CC)CC(C)(C)COC(=O)[C@@H]3CCCN(N3)C2=O)C(C)C)C1	K-Ras G12C (Homo sapiens (Human), UniProt P01116+P62937, G12C)	6.00 to 7.00
C=CC(=O)N1CCC2(CC1)CCN2C(=O)N(C)[C@H](C(=O)N[C@H]1Cc2nc(cs2)-c2ccc3c(c2)c(c(-c2cccnc2[C@H](C)OC)n3CC)CC(C)(C)COC(=O)[C@@H]2CCCN(N2)C1=O)C(C)C (atropisomer, axis not shown)	K-Ras G12C (Homo sapiens (Human), UniProt P01116+P62937, G12C)	7.00 to 8.00
C=CC(=O)N1CCO[C@H]2CN(C(=O)N(C)[C@H](C(=O)N[C@H]3Cc4coc(n4)-c4ccc5c(c4)c(c(-c4cccnc4[C@H](C)OC)n5CC(F)(F)F)CC(C)(C)COC(=O)[C@@H]4CCCN(N4)C3=O)C(C)C)C[C@H]21 (atropisomer, axis not shown)	K-Ras G12C (Homo sapiens (Human), UniProt P01116+P62937, G12C)	6.00 to 7.00
CCn1c(-c2cccnc2[C@H](C)OC)c2c3cc(ccc31)-c1cccc(c1)C[C@H](NC(=O)[C@H](C(C)C)N(C)C(=O)C1(F)CCN(C(=O)C#CC(C)(C)N(C)C)CC1)C(=O)N1CCC[C@H](N1)C(=O)OCC(C)(C)C2 (atropisomer, axis not shown)	K-Ras G12C (Homo sapiens (Human), UniProt P01116+P62937, G12C)	> 8.00
C=CC(=O)N(C)CCC1CCN(C(=O)N(C)[C@H](C(=O)N[C@H]2Cc3nc(cs3)-c3ccc4c(c3)c(c(-c3cccnc3[C@H](C)OC)n4CC)CC(C)(C)COC(=O)[C@@H]3CCCN(N3)C2=O)C(C)C)CC1 (atropisomer, axis not shown)	K-Ras G12C (Homo sapiens (Human), UniProt P01116+P62937, G12C)	7.00 to 8.00
C=CC(=O)N1CC[C@H](C(=O)N(C)[C@H](C(=O)N[C@H]2Cc3cccc(c3)-c3ccc4c(c3)c(c(-c3cc(C5=CCN(C)CC5)cnc3[C@H](C)OC)n4CC)CC(C)(C)COC(=O)[C@@H]3CCCN(N3)C2=O)C(C)C)C1 (atropisomer, axis not shown) [Example A514]	K-Ras G12C (Homo sapiens (Human), UniProt P01116+P62937, G12C)	5.00 to 6.00
CCn1c(-c2cccnc2[C@H](C)OC)c2c3cc(ccc31)-c1csc(n1)C[C@H](NC(=O)[C@H](C(C)C)N(C)C(=O)N1CCC3(CC1)CN(C(=O)/C=C/C(F)F)C3)C(=O)N1CCC[C@H](N1)C(=O)OCC(C)(C)C2 (atropisomer, axis not shown)	K-Ras G12C (Homo sapiens (Human), UniProt P01116+P62937, G12C)	7.00 to 8.00

----------
Measured pIC50, listed per entry for reference.
Target: K-Ras G13C (Homo sapiens (Human), UniProt P01116+P62937, G13C)
Sequence (P01116-2 other isoform, or with tags, fused parts or gaps G13C, one chain of several): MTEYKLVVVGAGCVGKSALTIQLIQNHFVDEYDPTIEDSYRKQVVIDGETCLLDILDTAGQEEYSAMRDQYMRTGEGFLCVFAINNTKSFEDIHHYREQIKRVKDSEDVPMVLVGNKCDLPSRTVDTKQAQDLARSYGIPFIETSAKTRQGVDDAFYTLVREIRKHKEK
Test: Ras-Raf (BRAF RBD) disruption / FRET / MOA assay, KRAS G13C
Type: biochemical
Conditions: KRAS G13C; Ras-Raf disruption/FRET/MOA assay; read-out: IC50* KRAS G13C FRET data
pIC50: −log10 of the molar value.
measurementType: pIC50

molecule	testedTarget	measurementType	endpointValue
C=CC(=O)N1CC[C@@H](C(=O)N(C)[C@H](C(=O)N[C@H]2Cc3cc(O)cc(c3)-c3ccc4c(c3)c(c(-c3cncnc3)n4CC)CC(C)(C)COC(=O)[C@@H]3CCCN(N3)C2=O)C(C)C)O1	K-Ras G13C (Homo sapiens (Human), UniProt P01116+P62937, G13C)	pIC50	6.00 to 7.00
C=CC(=O)Nc1ncc(C(=O)N(C)[C@H](C(=O)N[C@H]2Cc3cccc(c3)-c3ccc4c(c3)c(c(-c3cccnc3[C@H](C)OC)n4CC)CC(C)(C)COC(=O)[C@@H]3CCCN(N3)C2=O)C(C)C)n1C (atropisomer, axis not shown)	K-Ras G13C (Homo sapiens (Human), UniProt P01116+P62937, G13C)	pIC50	> 8.00
CCn1c(-c2cccnc2[C@H](C)OC)c2c3cc(ccc31)-c1cccc(n1)C[C@H](NC(=O)[C@H](C(C)C)N(C)C(=O)N1CCC13CN(C(=O)C#CC(C)(C)N(C)C)C3)C(=O)N1CCC[C@H](N1)C(=O)OCC(C)(C)C2 (atropisomer, axis not shown)	K-Ras G13C (Homo sapiens (Human), UniProt P01116+P62937, G13C)	pIC50	5.00 to 6.00
C=CC(=O)N1CC[C@H](C(=O)N(C)[C@H](C(=O)N[C@H]2Cc3cc(O)cc(c3)-c3ccc4c(c3)c(c(-c3cccnc3)n4[C@H](C)C#N)CC(C)(C)COC(=O)[C@@H]3CCCN(N3)C2=O)C(C)C)C1	K-Ras G13C (Homo sapiens (Human), UniProt P01116+P62937, G13C)	pIC50	5.00 to 6.00

----------
Recorded IC50, one value per entry.
Target: K-Ras G13C (Homo sapiens (Human), UniProt P01116+P62937, G13C)
Assay: Ras-Raf (BRAF RBD) disruption / FRET / MOA assay, KRAS G13C
Format: biochemical
Conditions: KRAS G13C; Ras-Raf disruption/FRET/MOA assay; read-out: IC50* KRAS G13C FRET data
measurementType: IC50

compound	measurementType	endpointValue
C=CC(=O)N1CC[C@H](C(=O)N(C)[C@H](C(=O)N[C@H]2Cc3cccc(c3)-c3ccc4c(c3)c(c(-c3cccnc3[C@H](C)OC)n4CC)CC(C)(C)COC(=O)[C@@H]3CCCN(N3)C2=O)C(C)(C)F)C1 (atropisomer, axis not shown) [Example A693]	IC50	1000 to 10000 nM
CCn1c(-c2cccnc2COC)c2c3cc(ccc31)-c1cc(O)cc(c1)C[C@H](NC(=O)[C@H](C(C)C)N(C)C(=O)[C@H]1CCN(C(=O)C#CCN3CCN(C)CC3)C1)C(=O)N1CCC[C@H](N1)C(=O)OCC(C)(C)C2 [Example A189]	IC50	100 to 1000 nM
C=CC(=O)C1C[C@@H](C(=O)N(C)[C@H](C(=O)N[C@H]2Cc3cc(O)cc(c3)-c3ccc4c(n3)c(c(-c3ccccc3CCOC)n4CC)CC(C)(C)COC(=O)[C@@H]3CCCN(N3)C2=O)C(C)C)CN1 (stereo partly shown) [Example A211]	IC50	> 10000 nM
C=CC(=O)N1CC[C@@]2(CCN([C@H](C(=O)N[C@H]3Cc4cccc(c4)-c4ccc5c(c4)c(c(-c4cccnc4[C@H](C)OC)n5CC)CC(C)(C)COC(=O)[C@@H]4CCCN(N4)C3=O)C(C)C)C2=O)C1 (atropisomer, axis not shown) [Example A471]	IC50	100 to 1000 nM
